PROTOCOL CONDITIONS: 298.15 K; 101.33 kPa; Liquid; Vibrating tube method
TEST READOUT: mass density (kg/m3)

INSERT INTO measurements (smiles_input, u, recorded_value) VALUES
  ('Cc1ccccc1C', 'kg/m3', 875.363),
  ('Cc1cc(C)cc(C)c1', 'kg/m3', 860.862),
  ('CCCCCCCCCO', 'kg/m3', 824.271),
  ('CCc1ccccc1', 'kg/m3', 862.433),
  ('Cc1ccc(C)cc1', 'kg/m3', 856.609),
  ('Cc1cccc(C)c1', 'kg/m3', 859.867);

* * *

Some compounds, each annotated with its measured speed of sound.
PROTOCOL CONDITIONS: 308.15 K; 101.33 kPa; Liquid; Sing-around technique in a fixed-path interferometer
TEST READOUT: speed of sound (m/s)

INSERT INTO measurements (smiles_input, test_readout, recorded_value) VALUES
  ('CCCCCCCCCO', 'speed of sound', 1330.4),
  ('Cc1cc(C)cc(C)c1', 'speed of sound', 1296.3),
  ('Cc1ccc(C)cc1', 'speed of sound', 1268.6),
  ('CCc1ccccc1', 'speed of sound', 1277.5),
  ('Cc1cccc(C)c1', 'speed of sound', 1279.1),
  ('Cc1ccccc1C', 'speed of sound', 1308.2);
